- Test system: Clostridium difficile
- assay-notes: growth AUC relative to DMSO control (median of replicates) (fraction); higher = more growth (less inhibition), active = hit call of the paper
- condition-context: 20 µM; 24 h
measurement-name: growth AUC
Give bare numbers.

compound	target-entity	result-value
CCCN(CCOc1c(Cl)cc(Cl)cc1Cl)C(=O)n1ccnc1	Clostridium difficile	0.982
Clc1ccc(Cl)c(Cl)c1Cl	Clostridium difficile	1
CC1=C(C(=O)Nc2ccccc2)SCCO1	Clostridium difficile	1
CCOC1Oc2ccc(OS(C)(=O)=O)cc2C1(C)C (stereo not drawn)	Clostridium difficile	0.99
O=C1OCC2C1C1(Cl)C(Cl)=C(Cl)C2(Cl)C1(Cl)Cl (stereo not drawn)	Clostridium difficile	0.987

Dear reader, for each entry below, please note its growth AUC.
1. CCOc1nc(NC)nc(NC(=O)NS(=O)(=O)c2ccccc2C(=O)OC)n1
2. OC(c1ccc(Cl)cc1)(c1cncnc1)c1ccccc1Cl (stereo not drawn)
3. CCC/C(=N\OCC)C1=C(O)CC(CC(C)SCC)CC1=O (stereo not drawn)
4. COP(=O)(OC)OC1=C(Cl)C2C=CCC12 (stereo not drawn)
5. CCOC(=O)CCN(Cc1ccccc1)SN(C)C(=O)O/N=C(/C)SC
6. CC(C)N1C(=O)N(c2ccccc2)CSC1=NC(C)(C)C

Reply |
1. 0.979
2. 1.01
3. 1.01
4. 1
5. 1.01
6. 1.02

Dear reader, for each entry below, please note its growth AUC.
1. CC(C)N1C(=O)c2ccccc2NS1(=O)=O
2. CCOC(=O)Nc1cccc(OC(=O)Nc2ccccc2)c1
3. OC(c1ccc(Cl)cc1)(c1ccc(Cl)cc1)C(Cl)(Cl)Cl
4. CC(C)=NOCCOC(=O)[C@@H](C)Oc1ccc(Oc2cnc3cc(Cl)ccc3n2)cc1
5. COP(=S)(OC)SCC(=O)N(c1ccc(Cl)cc1)C(C)C

Reply |
1. 0.98
2. 0.986
3. 1.03
4. 0.981
5. 1.01

Dear reader, for each entry below, please note its growth AUC.
1. CN(C)C(=O)C(c1ccccc1)c1ccccc1
2. CCOP(=O)(Sc1ccccc1)Sc1ccccc1
3. CON(C)C(=O)Nc1ccc(Br)c(Cl)c1
4. COP(=S)(OC)Oc1cc(Cl)c(Br)cc1Cl

Reply |
1: 1.03; 2: 0.984; 3: 0.996; 4: 0.966

Dear reader, for each entry below, please note its growth AUC.
1. CNC(=O)Oc1cc(C)c(SC)c(C)c1
2. CCOC(=O)OC1=C(c2cc(C)ccc2C)C(=O)NC12CCC(OC)CC2 (stereo not drawn)
3. CCOc1cc(Oc2ccc(C(F)(F)F)cc2Cl)ccc1[N+](=O)[O-]

Reply |
1: 1.01; 2: 0.977; 3: 0.993

* * *

- Test system: Akkermansia muciniphila
- assay-notes: growth AUC relative to DMSO control (median of replicates) (fraction); higher = more growth (less inhibition), active = hit call of the paper
- condition-context: 20 µM; 24 h
Exercise: state measured growth AUC for each of the compounds provided.
Give bare numbers.

Consider the worked cases shown below.
compound	result-value
CC(=NCc1ccc(Cl)nc1)NC#N	1.01
Clc1cc(Cl)c(Cl)c(Cl)c1	0.953
CO/N=C(/C(=O)OC)c1ccccc1CO/N=C(\C)c1cccc(C(F)(F)F)c1	0.96
CNC(=O)CSP(=S)(OC)OC	1.19
CN(C)c1nc(=O)n(C2CCCCC2)c(=O)n1C	0.966
O=C(Nc1ccccc1)Nc1cnns1	0.941
COc1nn(CSP(=S)(OC)OC)c(=O)s1	1.01
CCC(C)(C)C(=O)OC1=C(c2ccc(Cl)cc2Cl)C(=O)OC12CCCCC2	1.03

Dear reader, for each entry below, please note its growth AUC.
1. CCNc1nc(NC(C)C)[nH]c(=O)n1
2. C1=Cc2cccc3cccc1c23
3. CCOP(=O)(OCC)ON1C(=O)c2cccc3cccc(c23)C1=O

Reply |
1: 0.993; 2: 1.01; 3: 1.01

Dear reader, for each entry below, please note its growth AUC.
1. CC#Cc1cc(C)nc(Nc2ccccc2)n1
2. CCOP(=S)(OCC)Oc1nc(Cl)c(Cl)cc1Cl
3. Oc1ccccc1-c1ccccc1
4. OCC1C(CO)C2(Cl)C(Cl)=C(Cl)C1(Cl)C2(Cl)Cl (centres undefined)
5. CCNS(=O)(=O)C(F)(F)C(F)(F)C(F)(F)C(F)(F)C(F)(F)C(F)(F)C(F)(F)C(F)(F)F
6. Cc1ccn2nc(S(=O)(=O)Nc3c(F)cccc3F)nc2n1

Reply |
1: 1.08; 2: 0.91; 3: 1.03; 4: 0.817; 5: 0.945; 6: 1.04

Dear reader, for each entry below, please note its growth AUC.
1. CCOP(=S)(OCC)Oc1cc(Cl)c(Br)cc1Cl
2. C=CCN(CC=C)C(=O)C(Cl)Cl
3. CNC1=C(c2cccc(C(F)(F)F)c2)C(=O)C(c2ccccc2)O1 (centres undefined)

Reply |
1: 0.917; 2: 0.976; 3: 0.993

Reference for the values: the supplement of paper PMC12669032
